B1: POU domain, class 3, transcription factor 4, residues 280 to 335; numbered along this chain, P49335 (parent)
chain: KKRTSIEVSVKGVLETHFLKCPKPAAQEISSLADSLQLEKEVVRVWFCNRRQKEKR

Variants of: B1
test details: abundance fitness (aPCA) (normalised: wild type 0, dead -1); higher = more abundant; growth selection in yeast, the domain comes from the species named
settings: Homo sapiens
Assign yes (1) to entries whose abundance fitness meets or exceeds -0.5; assign no (0) to the rest.

Prompt: Assess whether reported abundance fitness for KKRTSIEVSVKGVLETHFLKCPKPAAQEISPLADSLQLEKEVVRVWFCNRRQKEKR [S31P] sits at -0.5 or higher.
Response: no (0)

Prompt: hey, is abundance fitness for this one >= -0.5? KKRTSIEVSVKGVLETHFCKCPKPAAQEISSLADSLQLEKEVVRVWFCNRRQKEKR [L19C]
Response: yes (1)

Prompt: State whether the measured abundance fitness reaches -0.5, counting equality as reaching it, for KKRTSIEVSVKGVLETHFLKCPKPAAQEISSLADSLQLSKEVVRVWFCNRRQKEKR [E39S]
Response: yes (1)

Prompt: Quick check: does KKRTSIEVSVKGVLETHFLKCPKPAAQEISSLAISLQLEKEVVRVWFCNRRQKEKR [D34I] have abundance fitness greater than or equal to -0.5?
Response: no (0)

Prompt: Form field: abundance fitness at least -0.5? Entry: KKRTSIEVSVKGVLETHFLKCPKPAAQEISSLADSLQLEMEVVRVWFCNRRQKEKR [K40M]
Response: yes (1)

Prompt: Is reported abundance fitness greater than or equal to -0.5 here: KKRTSIEVSVKGVRETHFLKCPKPAAQEISSLADSLQLEKEVVRVWFCNRRQKEKR [L14R]
Response: no (0)

Prompt: Decide: is the reported value of abundance fitness for KKRTSIEVSVKGVLETHFLKCPKPAAQEISSLADSLQLEKEVVRVWFCNRRQTEKR [K53T] equal to or greater than -0.5?
Response: yes (1)

Prompt: Assess whether reported abundance fitness for KKRTSIEVSVKGVLETHFLKCPKPAAQEISSLADSLRLEKEVVRVWFCNRRQKEKR [Q37R] sits at -0.5 or higher.
Response: yes (1)

Prompt: Form field: abundance fitness at least -0.5? Entry: KKRTSIEVSVKGVLETHFLKCPKPAAQEISSLADSLGLEKEVVRVWFCNRRQKEKR [Q37G]
Response: yes (1)

Prompt: Assess whether reported abundance fitness for KKRTSIEVSVKGVLETHFLKCYKPAAQEISSLADSLQLEKEVVRVWFCNRRQKEKR [P22Y] sits at -0.5 or higher.
Response: no (0)

Prompt: Test whether the variant KKRTSIEVSVKGVLETHNLKCPKPAAQEISSLADSLQLEKEVVRVWFCNRRQKEKR [F18N] records abundance fitness of -0.5 or higher.
Response: no (0)

Prompt: Has KKRTSIEVSVKGVLETHFLKCPKPASQEISSLADSLQLEKEVVRVWFCNRRQKEKR [A26S] a recorded abundance fitness greater than or equal to -0.5?
Response: yes (1)
